Task for the reader: assign each of the following compounds its reported concentration at 0.5 h.
- experiment summary: concentration in blood of mice after subcutaneous administration
- Format: in vivo, mice (ddY type, male)
- condition: mouse, sc, 20 mg/kg, 30 min
Respond with a number, then the unit of measure.

[
  {
    "compound": "CC(C)(ON=C(C(=O)NC1C(=O)N2C(C(=O)O)=C(CSc3nc(C(=O)O)c(-c4ccc(O)c(O)c4)s3)CSC12)c1csc(N)n1)C(=O)O (centres unmarked)",
    "quantity kind": "concentration at 0.5 h",
    "result": "52300 ng/mL"
  }
]

# input for lookup
Task: Look at this compound and give its reported concentration at 0.5 h. CC(C)(O/N=C(\C(=O)N[C@@H]1C(=O)N2C(C(=O)[O-])=C(C[n+]3ccccc3)CS[C@H]12)c1csc(N)n1)C(=O)O [ceftazidime, reference compound]
Result: 17300 ng/mL
